- Tested On: Monoamine transporters; serotonin & dopamine (Rattus norvegicus) (UniProt P31652+P23977)
- Sequence (P23977 whole entry, looked up): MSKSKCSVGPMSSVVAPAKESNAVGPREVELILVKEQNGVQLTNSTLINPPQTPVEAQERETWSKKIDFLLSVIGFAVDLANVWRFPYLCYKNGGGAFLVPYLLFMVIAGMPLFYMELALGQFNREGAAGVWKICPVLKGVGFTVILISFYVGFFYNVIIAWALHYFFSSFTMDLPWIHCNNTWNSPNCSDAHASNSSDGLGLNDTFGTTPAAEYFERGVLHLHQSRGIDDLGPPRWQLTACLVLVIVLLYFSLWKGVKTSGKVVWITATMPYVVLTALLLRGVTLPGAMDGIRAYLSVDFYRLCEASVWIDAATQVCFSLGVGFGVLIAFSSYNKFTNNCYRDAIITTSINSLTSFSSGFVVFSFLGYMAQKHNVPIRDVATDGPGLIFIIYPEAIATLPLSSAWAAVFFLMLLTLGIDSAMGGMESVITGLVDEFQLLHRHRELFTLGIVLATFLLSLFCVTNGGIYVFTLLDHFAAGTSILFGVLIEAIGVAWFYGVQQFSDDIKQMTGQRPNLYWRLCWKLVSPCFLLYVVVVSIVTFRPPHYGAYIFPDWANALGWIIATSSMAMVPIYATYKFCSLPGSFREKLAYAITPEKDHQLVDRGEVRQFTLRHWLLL
- Sequence (P31652 whole entry, looked up): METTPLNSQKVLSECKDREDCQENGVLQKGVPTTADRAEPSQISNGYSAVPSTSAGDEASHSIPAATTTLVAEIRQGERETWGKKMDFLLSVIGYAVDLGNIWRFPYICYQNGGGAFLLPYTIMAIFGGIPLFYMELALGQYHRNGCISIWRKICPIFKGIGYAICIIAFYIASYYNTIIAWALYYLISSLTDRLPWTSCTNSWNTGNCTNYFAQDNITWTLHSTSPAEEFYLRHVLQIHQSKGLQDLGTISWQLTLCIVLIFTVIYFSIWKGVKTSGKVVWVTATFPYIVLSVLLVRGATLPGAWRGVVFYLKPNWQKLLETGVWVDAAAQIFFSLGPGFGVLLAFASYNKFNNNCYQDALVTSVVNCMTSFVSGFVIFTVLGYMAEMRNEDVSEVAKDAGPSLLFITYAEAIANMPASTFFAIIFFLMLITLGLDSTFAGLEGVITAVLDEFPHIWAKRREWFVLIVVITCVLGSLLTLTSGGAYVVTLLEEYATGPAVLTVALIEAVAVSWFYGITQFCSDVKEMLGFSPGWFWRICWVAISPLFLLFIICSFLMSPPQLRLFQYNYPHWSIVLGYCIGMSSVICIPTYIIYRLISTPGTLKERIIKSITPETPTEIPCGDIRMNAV
- Test Details: Selectivity for rat DAT over rat 5HTT
- Type: protein assay
Overview of reported Selectivity ratio across a group of molecules:
Answer as a number with no unit attached.

// known answers, use as guide
| Molecule | Selectivity ratio |
| --- | --- |
| COC[C@H](c1ccccc1)[C@H]1CCCCN1 (relative stereo) | 110 |
| OC[C@H](c1ccc(Cl)c(Cl)c1)[C@H]1CCCCN1 (relative stereo) | 71 |
| O[C@H]1CCN2CCCC[C@@H]2[C@H]1c1ccc(Cl)c(Cl)c1 | 68 |
| CC[C@H]1CCN2CCCC[C@@H]2[C@H]1c1ccccc1 | 640 |
| COC(=O)[C@H](c1ccc(Cl)c(Cl)c1)[C@H]1CCCCN1 | 140 |

In: Report Selectivity ratio for Clc1ccccc1[C@H]1CCCN2CCCC[C@H]12 (relative stereo) please.
Out: 3.8

In: Any idea what its Selectivity ratio is? The molecule is COC(=O)[C@@H](c1ccc(Cl)c(Cl)c1)[C@H]1CCCCN1 (relative stereo)
Out: 7.1

In: Entry under review: CC[C@@H]1CCN2CCCC[C@@H]2[C@H]1c1ccccc1 . Reported Selectivity ratio?
Out: 87

In: Look at this molecule and give its reported Selectivity ratio. CC[C@@H]1CCN2CCCC[C@@H]2[C@H]1c1ccc(Cl)c(Cl)c1
Out: 83

In: Look at this molecule and give its reported Selectivity ratio. C[C@H]1C[C@H](c2ccccc2)[C@H]2CCCCN2C1
Out: 2.4

In: Look up Selectivity ratio: Clc1ccc([C@@H]2CCCN3CCCC[C@H]23)cc1Cl (relative stereo)
Out: 3

In: Consider the molecule shown here: O=C1CC[C@H](c2ccccc2)[C@H]2CCCCN12 What is its recorded Selectivity ratio?
Out: 0.54

In: Which Selectivity ratio value is on record for c1ccc([C@H]2CCCN3CCCC[C@H]23)cc1 (relative stereo) ?
Out: 67

In: Item under review: c1ccc(C2CCCNC2)cc1 (stereo not given) . Reported Selectivity ratio?
Out: 2.2

---

Let's go through some recorded log10 of Ki values for Sodium-dependent serotonin transporter (Rattus norvegicus, UniProt P31652) together.
Parameter value (number): base-10 log of Ki in µM.

In: Endpoint output: log10 of Ki of Clc1ccccc1[C@H]1CCCN2CCCC[C@H]12 (relative stereo) . Value?
Out: 0.26

---

- Tested On: UniProt:P23977
- Test Details: Inhibition of [3H]DA uptake at DAT in Sprague-Dawley rat striatum
pIC50: −log10 of the molar value.
Where pIC50 equals or exceeds 6, the correct label is 1.0; where it does not, the label is 0.0.

| Molecule | Group |
| --- | --- |
| O=C1CC[C@H](c2ccccc2)[C@H]2CCCCN12 | 0.0 |

In: Assess whether reported pIC50 for CO[C@H]1CCN2CCCC[C@@H]2[C@H]1c1ccccc1 sits at 6 or higher.
Out: 1.0

In: State whether the measured pIC50 reaches 6, counting equality as reaching it, for O=C1CCN2CCCC[C@@H]2[C@H]1c1ccccc1 (relative stereo)
Out: 0.0

In: Given the entry C[C@H]1C[C@H](c2ccccc2)[C@H]2CCCCN2C1 , answer whether its pIC50 meets or surpasses 6.
Out: 1.0

---

The entries below are paired with their reported inhibition.
- Tested On: Sodium-dependent serotonin transporter (Rattus norvegicus)
- Test Details: Displacement of [3H]citalopram from 5HTT in Sprague-Dawley rat cerebrum at 10 uM
Structures can show the parent of a compound that is named as a salt.
# output: bare number, implied unit %

Below, each entry is followed by its recorded inhibition result.
| Compound | Unit Abbreviation | inhibition |
| --- | --- | --- |
| COC[C@H](c1ccccc1)[C@H]1CCCCN1 (relative stereo) | % | 47.8 |
| O=C1CCN2CCCC[C@@H]2[C@H]1c1ccccc1 (relative stereo) | % | 5 |
| CC[C@@]1(O)CCN2CCCC[C@@H]2[C@H]1c1ccccc1 | % | 19 |
| c1ccc(C2CCCNC2)cc1 (stereo not drawn) | % | 53 |
| c1ccc(CC2CCCCN2)cc1 (stereo not drawn) | % | 22 |
| CO[C@H]1CCN2CCCC[C@@H]2[C@H]1c1ccccc1 | % | 73 |

// next entry
In: Given the entry COC(=O)[C@H](c1ccccc1)[C@H]1CCCCN1 [DEXMETHYLPHENIDATE HYDROCHLORIDE] , report its measured inhibition.
Out: 14

---

- Tested On: Sodium-dependent serotonin transporter (Rattus norvegicus) (UniProt P31652)
- Test Details: Displacement of [3H]citalopram from 5HTT in Sprague-Dawley rat cerebrum at 10 uM
Reported Property: inhibition (%)
Express your answer in %, writing the number without its unit.

| Molecule | Unit Abbreviation | Reported Measurement |
| --- | --- | --- |
| O[C@H]1CCN2CCCC[C@@H]2[C@H]1c1ccccc1 | % | 12 |

Okay, now this molecule:
In: Item O=C1CCN2CCCC[C@@H]2[C@H]1c1ccc(Cl)c(Cl)c1 (relative stereo) has what recorded inhibition?
Out: 54

---

- Tested On: Sodium-dependent dopamine transporter (Rattus norvegicus, UniProt P23977)
- Test Details: Inhibition of [3H]DA uptake at DAT in Sprague-Dawley rat striatum
Reported Property: pIC50
pIC50 field: float, defined as -log10 of concentration (mol/L).

Here is how some compounds turned out for pIC50.
| Compound | pIC50 |
| --- | --- |
| Clc1ccccc1[C@H]1CCCN2CCCC[C@H]12 (relative stereo) | 5.90 |
| OC[C@H](c1ccccc1)[C@H]1CCCCN1 (relative stereo) | 5.82 |
| CCN1CCCC[C@@H]1[C@H](C)c1ccccc1 (relative stereo) | 5.10 |
| CCN1CCCC[C@@H]1[C@H](CO)c1ccccc1 (relative stereo) | 4.98 |
| CO[C@@H]1CCN2CCCC[C@@H]2[C@H]1c1ccccc1 | 5.73 |
| c1ccc(CC2CCCCN2)cc1 (stereo unspecified) | 5.06 |

In: Sample COC[C@H](c1ccccc1)[C@H]1CCCCN1 (relative stereo) — what was its pIC50?
Out: 6.55

In: What value of pIC50 has been reported for the following compound? c1ccc([C@H]2CCCN3CCCC[C@H]23)cc1 (relative stereo)
Out: 6.61

In: Looking for the measured pIC50 of Clc1ccc([C@H]2CCCN3CCCC[C@H]23)cc1Cl (relative stereo) , can you help?
Out: 7.96

In: Find the recorded pIC50 belonging to C[C@@H]1C[C@H](c2ccccc2)[C@H]2CCCCN2C1 and report it.
Out: 6.61

---

- Tested On: Monoamine transporters; serotonin & dopamine (Rattus norvegicus) (UniProt P31652+P23977)
- Test Details: Selectivity for rat DAT over rat 5HTT
- Format: protein assay
Reported Property: Selectivity ratio

Solved cases below.
| Molecule | Tested On | Selectivity ratio |
| --- | --- | --- |
| O[C@@H]1CCN2CCCC[C@@H]2[C@H]1c1ccccc1 | Monoamine transporters; serotonin & dopamine (Rattus norvegicus) (UniProt P31652+P23977) | > 1.6 |
| COC(=O)[C@H](c1ccccc1Cl)[C@H]1CCCCN1 | Monoamine transporters; serotonin & dopamine (Rattus norvegicus) (UniProt P31652+P23977) | > 5.7 |

In: State the recorded Selectivity ratio for this entry: O=C1CCN2CCCC[C@@H]2[C@H]1c1ccccc1 (relative stereo)
Out: > 11

In: Fill in the blank: the reported Selectivity ratio of O[C@H]1CCN2CCCC[C@@H]2[C@H]1c1ccccc1 is ____.
Out: > 93

---

pKi data for Norepinephrine transporter (Rattus norvegicus, UniProt Q9WTR4) follow.
Kindly note that pKi refers to -log10 of the concentration in mol/L and answer with the value alone.

In: Test system Norepinephrine transporter (Rattus norvegicus, UniProt Q9WTR4); read-out pKi; what value for CC[C@H]1CCN2CCCC[C@@H]2[C@H]1c1ccc(Cl)c(Cl)c1 ?
Out: 7.01

In: // fetch Norepinephrine transporter (Rattus norvegicus, UniProt Q9WTR4) pKi for CC[C@@H]1CCN2CCCC[C@@H]2[C@H]1c1ccc(Cl)c(Cl)c1
Out: 6.99

In: Could you share what pKi was measured for Clc1ccccc1[C@H]1CCCN2CCCC[C@H]12 (relative stereo) , tested on Norepinephrine transporter (Rattus norvegicus, UniProt Q9WTR4)?
Out: 5.56

In: Could you share what pKi was measured for C[C@H]1C[C@H](c2ccccc2)[C@H]2CCCCN2C1 , tested on Norepinephrine transporter (Rattus norvegicus, UniProt Q9WTR4)?
Out: 6.16

In: Record CC[C@@H]1CCN2CCCC[C@@H]2[C@H]1c1ccccc1 : what is its pKi with Norepinephrine transporter (Rattus norvegicus, UniProt Q9WTR4)?
Out: 6.39

In: Notebook entry, Norepinephrine transporter (Rattus norvegicus, UniProt Q9WTR4) assay: pKi of C[C@@H]1C[C@H](c2ccccc2)[C@H]2CCCCN2C1 = ?
Out: 7.12

Origin of the recorded values: ChEMBL document CHEMBL1143672
